Source of measurements: the supplement of paper PMC12764529

measurementNotes: folding stability dG unfold from trypsin proteolysis; higher = more stable
measurementKind: folding stability dG unfold (kcal/mol)
Please respond with the number in kcal/mol and leave the unit unwritten.

sequenceEntry	measurementKind	endpointResult
SAGGSAGGSSPDWSVKKSTVTVTITFPEEKYFEPETKKEVAKRPVITIEIEIEVVETLPASLISAGGSAGGS [r12_600_JUSTAS]	folding stability dG unfold	1.65
SAGLDIKKIEFDPNGYLRIEVVYDKNISIKEIIEEIKKLTGATVEKVEVKPTKNGVKAIFILKIDKNLKSAG [r5_774_TrMRF]	folding stability dG unfold	1.12
SAGGEMELTLTVTIKVENLTKEQIEEELRKLLEELGFEIEEITVEYDEENKTITVTVRIRLPPLEDLSAGGS [r16_287_TrROS_Hall]	folding stability dG unfold	3.15

Inquiry: # return recorded folding stability dG unfold for input SAGGGNIRPVRIERLPDGSLLIVLVADSPDDAFSDESTLDALPGEEELLEARYDPSTGRVLLVRRFRPSAGG [r13_413_TrMRF]
Reply text: 1.33

Inquiry: # return recorded folding stability dG unfold for input SAGGIIEIDPNGWVIRIEMYPPDGKPPKHTIPFPNATPEELIDELKDWADQLPNPGHKVKIDEITPMPSAGG [r13_29_TrROS]
Reply text: 0.052

Inquiry: # return recorded folding stability dG unfold for input SAGGKKKKVKVKVVKVEKLENGTYKVVLEVEVDGKKITLVKEFKTKEDLEKKPKEIEITVEELKKLLKSAGG [r13_540_TrROS_Hall]
Reply text: 2.46

Inquiry: # return recorded folding stability dG unfold for input MKPGETKTLTLTIVDEETGETYTVKVTVTYDEDTGVVTIKAEITYPDGRKFTVTARFNRETGELTEISIEPS [r1_144_TrROS_Hall]
Reply text: 3.96

---

Listing: folding stability dG unfold of selected sequences
measurementNotes: folding stability dG unfold from chymotrypsin proteolysis; higher = more stable
Please respond with the number in kcal/mol and leave the unit unwritten.

Known results for sequences:
sequenceEntry	folding stability dG unfold / kcal/mol
SAGGKYVIIMFPLPPNLEVEIEYPGVPVHRTPNGSLMFQIPPNEPIRIKIKNPNGEEEELPINIFPLSAGGS [r8_72_TrROS]	2.33
SAGGSAGGGMTAEELAAKAIEEALKAGETVTVEIEVTNPNGETFTLELTLVVVDPDDPEALEALSAGGSAGG [r6_534_TrROS_Hall]	1.29
SAGGSAGGSAGGGSMLTVKVPETVPEYTSTDPATGKTYNVPPSVPVEVEGSPDSFSILLSAGGSAGGSAGGS [r10_46_JUSTAS]	0.842
SAGGSAGGSAVSPDETVPIKIDGKEVTVTFNGSKATITFPDGTVIEGTVSTEGSKLTLDLNLSAGGSAGGSA [r18_172_JUSTAS]	1.26
SAGGSAIKLPPGVKIEYHMHPDGYMTITIEYPNGRPIEIPMRMDPNGPREMTPDQIRDFIKELLKNSAGGSA [r15_780_TrROS]	2.33

Inquiry: # return recorded folding stability dG unfold for input SAGGSAGGSPVIAVRVKRIEVTYDAATGRLTVRIEVEVDGKTYTITVPPGAEIKPGDTLLIEPSAGGSAGGS [r20_49_TrROS_Hall]
Reply text: 4.43

Inquiry: # return recorded folding stability dG unfold for input SAGGPPNGMVPIKVPIKIRFPNGHEFKIDEAYVMPNGMVMIEMTHTDPDDKKEKFPFMIPPDNLEIVSAGGS [r16_498_TrROS]
Reply text: 1.59
